Test system: 415267-285-R-J2-PDC complex spheroid viability;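 also: spheroids exposed to compounds for one week before readout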
Assay: Anticancer human tumor 415267-285-R-J2-PDC patient-derived breast carcinoma cell line growth inhibition [POLQ]
Details: curve of first compound; second compound 3.16 µM
Method: Multicellular complex tumor spheroid response to Polymerase (POL) inhibitors (novobiocin, ART-558, RP6685) in combination with a variety of drugs and investigational agents in selected tumor cell lines The POL inhibitors (novobiocin, ART-558, and RP6685) were evaluated both individually and in combination with standard of care and investigational anticancer small molecules within a complex spheroid model of solid tumors. . […]
RESULT_TYPE: IC50

COc1cccc(OCCCN)c1-c1cc(Nc2cnc(C#N)cn2)n[nH]1 + Cc1cccc(N(C)C(=O)C2C(O)CCN2c2nc(C)cc(C(F)(F)F)c2C#N)c1
5.9 nM
O=c1[nH]cc(F)c(=O)[nH]1 + Cc1cccc(N(C)C(=O)C2C(O)CCN2c2nc(C)cc(C(F)(F)F)c2C#N)c1
192 nM
CCc1cc2c(N3CCc4c(cc(Cn5ccnc5)cc4-c4cn(C)nc4C(F)(F)F)C3=O)ccnc2c(OC)n1 + Nc1ccc(C#CCN(C(=O)Cc2ncc(C(F)(F)F)cc2C(F)(F)F)c2ccc(F)cc2)nn1
> 10000 nM
Cn1ncnc1[C@H]1c2n[nH]c(=O)c3cc(F)cc(c23)N[C@@H]1c1ccc(F)cc1 + Nc1ccc(C#CCN(C(=O)Cc2ncc(C(F)(F)F)cc2C(F)(F)F)c2ccc(F)cc2)nn1
> 100 nM
Nc1ccn(C2OC(CO)C(O)C2(F)F)c(=O)n1 (configuration not stated) + Nc1ccc(C#CCN(C(=O)Cc2ncc(C(F)(F)F)cc2C(F)(F)F)c2ccc(F)cc2)nn1
< 31.6 nM
O=c1[nH]cc(F)c(=O)[nH]1 + COC1C(OC(N)=O)C(O)C(Oc2ccc3c(O)c(NC(=O)c4ccc(O)c(CC=C(C)C)c4)c(=O)oc3c2C)OC1(C)C
205 nM
CC(=O)O[C@H]1C(=O)[C@@]2(C)[C@H]([C@H](OC(=O)c3ccccc3)[C@]3(O)C[C@H](OC(=O)[C@H](O)[C@@H](NC(=O)c4ccccc4)c4ccccc4)C(C)=C1C3(C)C)[C@]1(OC(C)=O)CO[C@@H]1C[C@@H]2O + Nc1ccc(C#CCN(C(=O)Cc2ncc(C(F)(F)F)cc2C(F)(F)F)c2ccc(F)cc2)nn1
< 9.49 nM
CNCc1ccc(-c2[nH]c3cc(F)cc4c3c2CCNC4=O)cc1 + Nc1ccc(C#CCN(C(=O)Cc2ncc(C(F)(F)F)cc2C(F)(F)F)c2ccc(F)cc2)nn1
> 10000 nM

Identify IC50 associated with the compound COc1cccc2c1C(=O)c1c(O)c3c(c(O)c1C2=O)CC(O)(C(=O)CO)CC3OC1CC(N)C(O)C(C)O1 (configuration not stated) + Nc1ccc(C#CCN(C(=O)Cc2ncc(C(F)(F)F)cc2C(F)(F)F)c2ccc(F)cc2)nn1 49.5 nM

Identify IC50 associated with the compound O=C(Nc1ccc(O)c(NS(=O)(=O)c2ccc(F)cc2)c1)c1ccc(-c2ccccc2)cc1 + COC1C(OC(N)=O)C(O)C(Oc2ccc3c(O)c(NC(=O)c4ccc(O)c(CC=C(C)C)c4)c(=O)oc3c2C)OC1(C)C 8170 nM

Identify IC50 associated with the compound C=CC(=O)N1CCN(c2nc(=O)n(-c3c(C)ccnc3C(C)C)c3nc(-c4c(O)cccc4F)c(F)cc23)C(C)C1 (configuration not stated) + COC1C(OC(N)=O)C(O)C(Oc2ccc3c(O)c(NC(=O)c4ccc(O)c(CC=C(C)C)c4)c(=O)oc3c2C)OC1(C)C > 10000 nM

Identify IC50 associated with the compound O=C(c1cc(Cc2n[nH]c(=O)c3ccccc23)ccc1F)N1CCN(C(=O)C2CC2)CC1 + Nc1ccc(C#CCN(C(=O)Cc2ncc(C(F)(F)F)cc2C(F)(F)F)c2ccc(F)cc2)nn1 > 10000 nM
